- methodSummary: Liver microsomes metabolic stability assay, human
- Format: in vitro ADME
- studyConditions: human liver microsomes 0.5 mg/mL, 37° C.
parameter: microsomal CLint at 2 μM (µL/min/mg)

smilesentry=Fc1ccc(F)c([C@H]2CCCN2c2ccn3ncc(-c4nc5ccc(OC(F)(F)F)cc5o4)c3n2)c1 parameter="microsomal CLint at 2 μM" measured=2.4
smilesentry=CS(=O)(=O)c1cc2nc(-c3cnn4ccc(N5CCC[C@@H]5c5cc(F)ccc5F)nc34)[nH]c2cc1C(N)=O parameter="microsomal CLint at 2 μM" measured=46.6
smilesentry=CSc1cc2nc(-c3cnn4ccc(N5CCC[C@@H]5c5cc(F)ccc5F)nc34)[nH]c2cc1C#N parameter="microsomal CLint at 2 μM" measured=42.2
smilesentry=CC(C)(O)Cc1nnc(-c2cnn3ccc(N4CCC[C@@H]4c4cc(F)ccc4F)nc23)[nH]1 parameter="microsomal CLint at 2 μM" measured=16.8
smilesentry=COc1cc2[nH]c(-c3cnn4ccc(N5CCC[C@@H]5c5cc(F)ccc5F)nc34)nc2cc1Cl parameter="microsomal CLint at 2 μM" measured=16.8
smilesentry=Fc1ccc(F)c([C@H]2CCCN2c2ccn3ncc(-c4nc5cnccc5[nH]4)c3n2)c1 parameter="microsomal CLint at 2 μM" measured=12.6
smilesentry=CS(=O)(=O)c1cc2nc(-c3cnn4ccc(N5CCC[C@@H]5c5cc(F)ccc5F)nc34)[nH]c2cc1C#N parameter="microsomal CLint at 2 μM" measured=41.6
